Target: UniProtKB P41595
Sequence (P41595 whole entry): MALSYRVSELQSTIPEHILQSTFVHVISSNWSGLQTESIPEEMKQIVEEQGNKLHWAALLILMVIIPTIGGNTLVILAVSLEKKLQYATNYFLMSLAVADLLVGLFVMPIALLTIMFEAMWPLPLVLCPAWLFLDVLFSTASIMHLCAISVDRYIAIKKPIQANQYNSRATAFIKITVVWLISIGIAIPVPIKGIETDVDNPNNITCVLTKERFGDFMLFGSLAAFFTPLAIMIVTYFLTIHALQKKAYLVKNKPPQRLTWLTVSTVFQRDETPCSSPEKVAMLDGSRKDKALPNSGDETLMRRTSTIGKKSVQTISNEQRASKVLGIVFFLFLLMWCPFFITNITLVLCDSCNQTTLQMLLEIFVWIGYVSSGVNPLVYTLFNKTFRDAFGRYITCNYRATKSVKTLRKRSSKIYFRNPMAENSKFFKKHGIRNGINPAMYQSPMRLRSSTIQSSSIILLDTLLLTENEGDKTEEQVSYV
Assay: Displacement of [125I]-DOI from 5-HT2B receptor (unknown origin) expressed in HEK293 cell membrane incubated for 1 hr by scintillation counter analysis
pEC50: −log10 of the molar value.
measurement_kind: pEC50

>>> reported_measurement("O=C(NCCF)c1ccc2c3c1CCN3CCNC2")
"< 4.30"
>>> reported_measurement("O=C(NC1CC1)c1ccc2c3c1CCN3CCNC2")
"< 4.30"
>>> reported_measurement("O=C(NCCCl)c1ccc2c3c1CCN3CCNC2")
"< 4.30"
>>> reported_measurement("O=C(NCCOc1ccccc1)c1ccc2c3c1CCN3CCNC2")
"< 4.30"
>>> reported_measurement("COC(C)CNC(=O)c1ccc2c3c1CCN3CCNC2 (stereo not drawn)")
"< 4.30"
>>> reported_measurement("CCOCCNC(=O)c1ccc2c3c1CCCN3CCNC2")
"< 4.30"

Lookup: Give the measured pEC50 of CCOCCNC(=O)c1ccc2c3c1CCN3CCNC2 .
Found: < 4.30

Lookup: Quick check: pEC50 of CCCOCCNC(=O)c1ccc2c3c1CCN3CCNC2 ?
Found: < 4.30

Lookup: Entry under review: COCC(C)NC(=O)c1ccc2c3c1CCN3CCNC2 (stereo not drawn) . Reported pEC50?
Found: < 4.30

Lookup: Reported pEC50, molecule CNC(=O)c1ccc2c3c1CCCN3CCNC2 : ____
Found: < 4.30

Lookup: What pEC50 value was documented for this molecule, CCNC(=O)c1ccc2c3c1CCN3CCNC2 ?
Found: < 4.30

Lookup: # input molecule: COCCNC(=O)c1ccc2c3c1CCCN3CCNC2 ; wanted: its pEC50
Found: < 4.30

Lookup: # get_value(readout='pEC50', item= CN(C)C(=O)c1ccc2c3c1CCN3CCNC2 )
Found: < 4.30

Lookup: Item CS(=O)(=O)CCNC(=O)c1ccc2c3c1CCN3CCNC2 has what recorded pEC50?
Found: < 4.30

Lookup: For the molecule shown here, O=C(NCC(F)F)c1ccc2c3c1CCN3CCNC2 , give the reported pEC50.
Found: < 4.30

Lookup: # query: pEC50 of entry O=C(NCC1CC1)c1ccc2c3c1CCN3CCNC2
Found: < 4.30

Lookup: // lookup pEC50 for O=C(NCC(F)(F)F)c1ccc2c3c1CCN3CCNC2
Found: < 4.30

Lookup: Look at this molecule and give its reported pEC50. CC(C)NC(=O)c1ccc2c3c1CCN3CCNC2
Found: < 4.30

Lookup: Quick one: pEC50 for CSCCNC(=O)c1ccc2c3c1CCN3CCNC2 ?
Found: < 4.30

Lookup: // query pEC50 value for entry CC(C)OCCNC(=O)c1ccc2c3c1CCN3CCNC2
Found: < 4.30

Lookup: For the molecule shown here, CCSCCNC(=O)c1ccc2c3c1CCN3CCNC2 , give the reported pEC50.
Found: < 4.30

Lookup: Which pEC50 value belongs to CCCCNC(=O)c1ccc2c3c1CCN3CCNC2 ?
Found: < 4.30

Lookup: Fill blank: measured pEC50 of the molecule NC(=O)c1ccc2c3c1CCN3CCNC2 is ____.
Found: < 4.30

Reference source: ChEMBL document CHEMBL6182909
